Reported inhibition at 20 µM values for a set of compounds
Molecular target: Rho-A (Homo sapiens, UniProt P61586)
Sequence (P61586 1-190): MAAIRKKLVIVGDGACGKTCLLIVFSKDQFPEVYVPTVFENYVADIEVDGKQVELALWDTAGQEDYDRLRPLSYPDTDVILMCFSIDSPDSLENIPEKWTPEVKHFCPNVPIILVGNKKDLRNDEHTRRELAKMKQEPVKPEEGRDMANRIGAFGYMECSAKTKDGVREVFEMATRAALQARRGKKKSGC
Test: Ras GTP binding domain inhibition assay (Cy3-GTP/Cy5-GTP competition)
Conditions: with SOS, read-out: Rho-A + SOS: % inh.

The cases that follow already have their inhibition at 20 µM on record.
CN(Cc1ccccc1)C(=O)c1nc(-c2ccccn2)nc(O)c1O [drawing 934] = 51 to 75%
COc1cccc(Cn2ccnc2-c2nc(O)c3scc(-c4ccccn4)c3n2)c1 [drawing 985] = 51 to 75%
CO[C@H]1CC[C@@H](Nc2nc(-c3nccn3C)nc3sc(C(=O)N4CCCC4)c(-c4ccccc4)c23)C1 [drawing 1061] = 76 to 100%

If you can, please state the reported inhibition at 20 µM value of COc1cccc(Cn2ccnc2-c2nc(O)c3scc(-c4ccc(OCC(C)C)nc4)c3n2)c1 [drawing 1035] . 51 to 75%

Next up: CO[C@H]1C[C@@H](Nc2nc(-c3ccccn3)nc3sccc23)C1 [drawing 1037] 51 to 75%

Next up: Cc1c(-c2ccn(C)n2)sc2nc(-c3nccn3C)nc(NCCCS(C)(=O)=O)c12 [drawing 1051] 51 to 75%

Next up: COC1CCC(Nc2nc(-c3nccn3C)nc3sc(-c4cccc5[nH]ncc45)c(-c4ccccc4)c23)C1 (centres unmarked) [drawing 1023] 1 to 25%

Next up: Oc1nc(-c2ncc3n2CCCC3)nc2c(-c3ccccn3)csc12 [drawing 968] 76 to 100%
